# tested on: MNK2a (Homo sapiens)
# Sequence (Q9HBH9 whole entry): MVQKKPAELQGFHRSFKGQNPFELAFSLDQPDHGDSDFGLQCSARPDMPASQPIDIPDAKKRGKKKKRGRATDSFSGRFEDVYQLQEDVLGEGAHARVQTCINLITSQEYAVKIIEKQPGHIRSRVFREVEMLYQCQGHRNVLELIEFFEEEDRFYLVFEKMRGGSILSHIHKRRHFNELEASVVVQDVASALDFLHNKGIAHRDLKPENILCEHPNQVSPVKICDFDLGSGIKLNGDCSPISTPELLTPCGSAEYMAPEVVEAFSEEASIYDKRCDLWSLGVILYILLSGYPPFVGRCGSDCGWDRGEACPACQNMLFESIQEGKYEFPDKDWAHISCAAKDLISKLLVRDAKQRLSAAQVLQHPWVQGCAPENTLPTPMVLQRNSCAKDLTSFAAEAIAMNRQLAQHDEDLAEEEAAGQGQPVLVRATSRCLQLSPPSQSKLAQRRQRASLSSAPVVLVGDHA
# assay details: MNK2a in vitro kinase assay (assay 1), ADP-Glo
# experimental context: preactivated GST-MNK2a, 20 μM ATP, read-out: MNK2 IC50
Attribute: pIC50
The value called pIC50 is obtained by taking minus log10 of the concentration in mol/L.

Record excerpt, results attached:
compound | recorded value
Cc1cc(N=S2(=O)CCCC2)cc2ncnc(Nc3ccc(F)cc3OC3CCc4ccccc43)c12 (stereo not shown) | 8.52
Cc1cc(N=S(C)(C)=O)cc2ncnc(Nc3ccc(C#N)cc3O[C@H]3CC[C@H](O)CC3)c12 | 8.30
Cc1cc(N=S2(=O)CCCC2)cc2ncnc(Nc3ccc(F)cc3O[C@@H]3CCCN(C(=O)OC(C)(C)C)C3)c12 | 7.80
CO[C@@H]1CO[C@H]2[C@@H]1OC[C@H]2Oc1cc(F)ccc1Nc1ncnc2cc(N=S(C)(C)=O)cc(C)c12 | 9.00
CO[C@@H]1CO[C@H]2[C@@H]1OC[C@H]2Oc1cc(F)ccc1Nc1ncnc2cc(N=S(C)(C)=O)cc(OC(F)F)c12 | 9.00

Enquiry: Consider the compound shown here: Cc1cc(N=S(C)(C)=O)cc2ncnc(Nc3ccc(F)cc3OC3CNOC3)c12 (stereo not shown) What is its recorded pIC50?
Return: 8.70

Enquiry: Consider the compound shown here: CS(C)(=O)=Nc1cc(Cl)c2c(Nc3ccc(F)cc3O[C@@H]3CO[C@H]4[C@@H]3OC[C@@H]4O)ncnc2c1 What is its recorded pIC50?
Return: 9.00

###

# tested on: MNK2a (Homo sapiens)
# assay details: MNK2a in vitro kinase assay (assay 1), ADP-Glo
# experimental context: preactivated GST-MNK2a, 20 μM ATP, read-out: MNK2 IC50
endpoint label: pIC50
The value called pIC50 is obtained by taking minus log10 of the concentration in mol/L.

Record excerpt, results attached:
molecule | tested on | pIC50
CS(C)(=O)=Nc1cc(C(F)F)c2c(Nc3ccc(F)cc3O[C@H]3CCOC3)ncnc2c1 [Example 1.21] | MNK2a (Homo sapiens) | 8.70
Cc1cc(N=S(C)(C)=O)cc2ncnc(Nc3ccc(F)cc3O[C@@H]3CCNC3)c12 [Example 3.11] | MNK2a (Homo sapiens) | 7.49

Enquiry: Consider the molecule shown here: Cc1cc(N=S2(=O)CCCC2)cc2ncnc(Nc3cccnc3O[C@H]3CC[C@H](O)CC3)c12 [Example 2.69] What is its recorded pIC50?
Return: 8.70

Enquiry: Consider the molecule shown here: Cc1cc(N=S2(=O)CCCC2)cc2ncnc(Nc3ccc(F)cc3O[C@@H]3CC[C@@H]4OCC[C@@H]43)c12 [Example 2.125] What is its recorded pIC50?
Return: 8.70

Enquiry: Consider the molecule shown here: Cc1cc(N=S(C)(=O)CCc2ccccc2)cc2ncnc(Nc3ccc(F)cc3O[C@H]3CC[C@H](O)CC3)c12 (some centres unmarked) [Example 2.54] What is its recorded pIC50?
Return: 8.30

Enquiry: Consider the molecule shown here: Cc1cc(N=S(C)(=O)c2cccnc2)cc2ncnc(Nc3ccc(F)cc3O[C@@H]3CO[C@@H]4CCO[C@@H]43)c12 (some centres unmarked) [Example 2.95] What is its recorded pIC50?
Return: 8.40

Enquiry: Consider the molecule shown here: Cc1cc(N=S(C)(C)=O)cc2ncnc(Nc3ccc(F)cc3O[C@H]3CC[C@@](C)(O)CC3)c12 [Example 2.74] What is its recorded pIC50?
Return: 8.52

Enquiry: Consider the molecule shown here: COc1cc(N=S(C)(C)=O)cc2ncnc(Nc3ccc(F)cc3O[C@H]3CCOC3)c12 [Example 5.2] What is its recorded pIC50?
Return: 8.70

Enquiry: Consider the molecule shown here: Cc1cc(N=S(C)(C)=O)cc2ncnc(Nc3ccc(F)cc3O[C@H]3CCOC3)c12 [Example 2.47] What is its recorded pIC50?
Return: 8.70

Enquiry: Consider the molecule shown here: CO[C@@H]1CO[C@H]2[C@@H]1OC[C@H]2Oc1cc(F)ccc1Nc1ncnc2cc(N=S(C)(C)=O)cc(OCC(F)F)c12 [Example 5.7] What is its recorded pIC50?
Return: 8.70

Enquiry: Consider the molecule shown here: CO[C@@H]1CO[C@H]2[C@@H]1OC[C@H]2Oc1cc(F)ccc1Nc1ncnc2cc(N=S(C)(C)=O)cc(F)c12 [Example 2.76] What is its recorded pIC50?
Return: 8.30

Enquiry: Consider the molecule shown here: Cc1cc(N=S(C)(C)=O)cc2ncnc(Nc3ccc(F)cc3O[C@@H]3CCC[C@H]3O)c12 [Example 7.16] What is its recorded pIC50?
Return: 9.00

Enquiry: Consider the molecule shown here: O=S1(=Nc2cc(Cl)c3c(Nc4ccc(F)cc4O[C@@H]4CO[C@@H]5CCO[C@@H]54)ncnc3c2)CCCC1 [Example 1.7] What is its recorded pIC50?
Return: 9.00

Enquiry: Consider the molecule shown here: CS(C)(=O)=Nc1cc(O)c2c(Nc3ccc(F)cc3O[C@H]3CCOC3)ncnc2c1 [Example 1.22] What is its recorded pIC50?
Return: 7.60

These entries and their values trace back to patent US8901138B2.
